Can you tell me normalized growth for the items I'm about to list?
PROTOCOL_DESCRIPTION: chemical genetic growth profiling, strain panel (AID 1159580);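 also: tested at 20 µM; growth read once vehicle control cultures reached saturation at 30 °C; 1 = growth at the plate median or of vehicle wells; lower values mean less growth of the strain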
ASSAY_SETUP: S. cerevisiae deletion strains, growth OD, locus YHR027C, strain rpn1, active compounds read low
The whole screen tested about 5,500 compounds, of which about 2,000 (36%) were called active. Inconclusive results (about 18%) are left out. This is one part of the list.
Numbers only.

A selection of reference data follows.
CC(C)OC(=O)C(C)(C)Oc1ccc(C(=O)c2ccc(Cl)cc2)cc1 = 0.986
CC1=C(/C=C/C(C)=C/C=C/C(C)=C/C=C/C=C(C)/C=C/C=C(C)/C=C/C2=C(C)C(=O)C(O)CC2(C)C)C(C)(C)CC(O)C1=O (configuration not stated) = 1.03
CC(C(=O)O)c1cccc(C(=O)c2ccccc2)c1 (configuration not stated) = 1.01

Take each entry in turn and give its normalized growth.
1. CCOC(=O)CCC(=O)O[C@H]1[C@H](O[C@@H]2[C@@H](C)[C@H](O[C@H]3C[C@@](C)(OC)[C@@H](O)[C@H](C)O3)[C@@H](C)C(=O)O[C@H](CC)[C@@](C)(O)[C@H](O)[C@@H](C)C(=O)[C@H](C)C[C@@]2(C)O)O[C@H](C)C[C@@H]1N(C)C
2. COc1cc(NS(=O)(=O)c2ccc(N)cc2)nc(OC)n1
3. CC1=C(/C=C/C(C)=C/C=C/C(C)=C/C=C/C=C(C)/C=C/C=C(C)/C=C/C2=C(C)C(=O)CCC2(C)C)C(C)(C)CCC1=O
4. CC1=C(/C=C/C(C)=C/C=C/C(C)=C/C=C/C=C(C)/C=C/C=C(C)/C=C/C(=O)[C@]2(C)C[C@@H](O)CC2(C)C)C(C)(C)C[C@H](O)C1

1.02
0.981
0.997
1

Take each entry in turn and give its normalized growth.
1. CCOC(=O)C(Cc1ccc(O)cc1)NC(C)=O (configuration not stated)
2. CC(=O)NC1SCCC1=O (configuration not stated)
3. CCC(=O)O[C@H]1[C@H](O[C@@H]2[C@@H](C)[C@H](O[C@H]3C[C@@](C)(OC)[C@@H](O)[C@H](C)O3)[C@@H](C)C(=O)O[C@H](CC)[C@@](C)(O)[C@H](O)[C@@H](C)C(=O)[C@H](C)C[C@@]2(C)O)O[C@H](C)C[C@@H]1N(C)C
4. CS(=O)(=O)c1ccc(C2=C(c3ccccc3)C(=O)OC2)cc1
5. O=C(O)C1(O)C[C@@H](O)C(O)[C@H](O)C1 (some centres not stated)
6. COc1ccc2cc([C@H](C)CO)ccc2c1

[1.01, 1, 1, 0.963, 0.994, 1.01]

Provide normalized growth values for the following items, in order.
1. C=C1C2CC[C@H]3[C@]4(C)C[C@H](OC5OC(CO)C(OS(=O)(=O)O)C(OS(=O)(=O)O)C5OC(=O)CC(C)C)C[C@@H](C(=O)O)[C@H]4CC[C@]3(C2)[C@H]1O (some centres not stated)
2. COc1cc(NC(C)CCCN)c2ncccc2c1 (configuration not stated)

[1.01, 1.03]

Lab note: each molecule below needs its normalized growth filled in.
1. CCC(=O)O[C@H]1CCC2C3CCC4=CC(=O)CC[C@]4(C)C3CC[C@@]21C (some centres not stated)
2. C[C@]12CCC(=O)C=C1CCC1C2CC[C@@]2(C)C1CC[C@@H]2O (some centres not stated)

[0.967, 0.997]
